assay: Capsule perfume leakage in liquid fabric enhancer (LFE), headspace SPME GC/MS; assay type: physicochemical; settings: PRM of Perfume 1 out of Example 6-1 capsules (w/ second shell component); LFE Composition 1
result_type: Leakage (as %) after 1 week at 35° C.
Unit % implied. Number only.

I am curious: what Leakage (as %) after 1 week at 35° C. value has been reported for CC(=O)OC1CCC(C(C)(C)C)CC1 (centres unmarked) [(4-tert-butylcyclohexyl) acetate] ? 7

I am curious: what Leakage (as %) after 1 week at 35° C. value has been reported for CC(=O)OC1CC2CC1C1CC=CC21 (centres unmarked) [Verdyl acetate] ? 7

I am curious: what Leakage (as %) after 1 week at 35° C. value has been reported for CC(=O)O[C@@H]1C[C@H]2CC[C@]1(C)C2(C)C (racemic) [iso-Bornyl acetate] ? 9

I am curious: what Leakage (as %) after 1 week at 35° C. value has been reported for CC(=O)OC1CCCCC1C(C)(C)C (centres unmarked) [(2-tert-butylcyclohexyl) acetate] ? 11

I am curious: what Leakage (as %) after 1 week at 35° C. value has been reported for CCC(C)CCCC(C)(C)O (centres unmarked) [Tetrahydro myrcenol] ? 7

---

assay: Capsule perfume leakage in liquid fabric enhancer (LFE), headspace SPME GC/MS; assay type: physicochemical; conditions: PRM of Perfume 3 out of Capsule Sample D; LFE Composition 1
One threshold, 8%, splits the recorded Leakage (as %) after 1 week at 35° C. values: lower ones are T, equal or higher ones are F.

Is Leakage (as %) after 1 week at 35° C. of CC(C)=CCCC(C)CCO (stereo not shown) [Citronellol] strictly below 8%? T

Is Leakage (as %) after 1 week at 35° C. of CC(=O)OC(C)c1ccccc1 (stereo not shown) [Methyl phenyl carbinyl acetate] strictly below 8%? T

Is Leakage (as %) after 1 week at 35° C. of CCOC(=O)C(C)CC (stereo not shown) [Ethyl 2-methyl butyrate] strictly below 8%? F

Is Leakage (as %) after 1 week at 35° C. of CC(=O)/C=C/C1=C(C)CCCC1(C)C [beta ionone] strictly below 8%? T

Is Leakage (as %) after 1 week at 35° C. of CCCCCCCCCC(C)C=O (stereo not shown) [Methyl nonyl acetaldehyde] strictly below 8%? T

Is Leakage (as %) after 1 week at 35° C. of C=CCOC(=O)CCCCC [Allyl caproate] strictly below 8%? F

Is Leakage (as %) after 1 week at 35° C. of CC(=O)C(C)=CC1C(C)=CCCC1(C)C (stereo not shown) strictly below 8%? T

Is Leakage (as %) after 1 week at 35° C. of CC=CC(=O)C1C(C)C=CCC1(C)C (stereo not shown) strictly below 8%? T

Is Leakage (as %) after 1 week at 35° C. of CCC=C(C)C(O)CCCCC (stereo not shown) [Undecavertol] strictly below 8%? F

Is Leakage (as %) after 1 week at 35° C. of CCC(C)(O)CCCC(C)C (stereo not shown) [Tetrahydro linalool] strictly below 8%? F

Is Leakage (as %) after 1 week at 35° C. of CC1=CCC(C(C)(C)O)CC1 (stereo not drawn) [alpha-Terpineol] strictly below 8%? F

Is Leakage (as %) after 1 week at 35° C. of C=CCCC(=O)C1=CCCC(C)(C)C1 strictly below 8%? T

---

experiment: Capsule perfume leakage in liquid fabric enhancer (LFE), headspace SPME GC/MS; format: physicochemical; details: PRM of Perfume 1 out of Example 2, Sample A capsules; LFE Composition 1 (Ester Quat 1)
Exercise: state measured Leakage (as %) after 1 week at 35° C. for each of the molecules provided.
Unit % implied. Number only.

I am curious: what Leakage (as %) after 1 week at 35° C. value has been reported for CCC(C)(O)CCCC(C)C (stereo not drawn) [Tetrahydro linalool] ? 2.3

I am curious: what Leakage (as %) after 1 week at 35° C. value has been reported for CCOC(=O)C(C)CC (stereo not drawn) [Ethyl 2-methyl butyrate] ? 1.3

I am curious: what Leakage (as %) after 1 week at 35° C. value has been reported for CC1=CC(C)C(C=O)CC1 (stereo not drawn) ? 2.1

I am curious: what Leakage (as %) after 1 week at 35° C. value has been reported for CC12CCC(CC1)C(C)(C)O2 [Eucalyptol] ? 2.1

I am curious: what Leakage (as %) after 1 week at 35° C. value has been reported for CC(=O)O[C@@H]1C[C@H]2CC[C@]1(C)C2(C)C (racemic) [iso-Bornyl acetate] ? 1.6

I am curious: what Leakage (as %) after 1 week at 35° C. value has been reported for CCC(C)CCCC(C)(C)O (stereo not drawn) [Tetrahydro myrcenol] ? 2.4

I am curious: what Leakage (as %) after 1 week at 35° C. value has been reported for CC(=O)OC1CCC(C(C)(C)C)CC1 (stereo not drawn) [(4-tert-butylcyclohexyl) acetate] ? 0.1

I am curious: what Leakage (as %) after 1 week at 35° C. value has been reported for CC(=O)OC1CC2CC1C1CC=CC21 (stereo not drawn) [Verdyl acetate] ? 1.2

I am curious: what Leakage (as %) after 1 week at 35° C. value has been reported for CC(=O)OC1CCCCC1C(C)(C)C (stereo not drawn) [(2-tert-butylcyclohexyl) acetate] ? 2.2
